# TEST NAME: clinical
# TEST CONTEXT: human, in vivo, adult patients, one hour after a single dose of 100 mg; read-out: serum concentration
MEASUREMENT NAME: concentration at 1 h (nM)
Please give a number only; it is taken to be in nM.

Give its concentration at 1 h value. Item: CCCc1nn(C)c2c(=O)[nH]c(-c3cc(S(=O)(=O)N4CCN(C)CC4)ccc3OCC)nc12 690

* * *

# TEST NAME: clinical
# TEST CONTEXT: human, in vivo; PAH patients after taking 3 x 80 mg/d (3 mg/kg/d); read-out: steady-state plasma concentration, peak level
MEASUREMENT NAME: Cmax (µM)
Note: unit µM is implicit; provide only the numeric part.

Value lookup for Cmax; key = CCCc1nn(C)c2c(=O)[nH]c(-c3cc(S(=O)(=O)N4CCN(C)CC4)ccc3OCC)nc12 0.28
